The values you see were collected from patent US20240382629A1.

study target: PREP (Homo sapiens (Human), UniProt P48147)
Sequence (P48147 whole entry): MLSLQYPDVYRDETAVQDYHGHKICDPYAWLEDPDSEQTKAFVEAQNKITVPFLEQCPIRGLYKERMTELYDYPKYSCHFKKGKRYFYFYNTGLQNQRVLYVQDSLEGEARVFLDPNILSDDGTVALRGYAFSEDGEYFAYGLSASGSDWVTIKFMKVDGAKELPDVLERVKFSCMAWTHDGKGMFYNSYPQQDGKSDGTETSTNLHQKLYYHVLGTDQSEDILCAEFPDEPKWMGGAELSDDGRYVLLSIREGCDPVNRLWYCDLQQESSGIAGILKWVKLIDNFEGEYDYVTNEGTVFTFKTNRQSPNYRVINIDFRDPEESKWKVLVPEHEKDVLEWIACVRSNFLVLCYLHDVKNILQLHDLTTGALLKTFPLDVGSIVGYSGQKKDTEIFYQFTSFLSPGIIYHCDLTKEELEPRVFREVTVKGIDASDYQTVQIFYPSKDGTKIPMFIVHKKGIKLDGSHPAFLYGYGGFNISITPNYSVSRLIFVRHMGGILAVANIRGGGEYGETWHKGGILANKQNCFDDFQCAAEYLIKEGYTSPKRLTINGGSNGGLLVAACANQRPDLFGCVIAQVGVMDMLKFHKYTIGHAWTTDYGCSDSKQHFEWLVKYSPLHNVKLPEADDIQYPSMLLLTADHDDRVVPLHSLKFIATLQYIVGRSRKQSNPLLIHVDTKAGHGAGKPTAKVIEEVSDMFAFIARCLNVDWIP
test description: PREP inhibition assay (recombinant enzyme, Z-Gly-Pro-AMC substrate)
Format: biochemical
experimental setup: Table 4
Each record here notes measured IC50.

molecule	study target	IC50
N#C[C@@H]1CCCN1C(=O)CNC(=O)c1ccnc2ccc(OCCCNC(=O)CCc3cn(CCOCCOCCOCCC(=O)N[C@@H](CCCCNC(=O)CN4CCN(CC(=O)O)CCN(CC(=O)O)CC4)C(=O)NCCCCC(=O)N(CCCC[C@H](NC(=O)N[C@@H](CCC(=O)O)C(=O)O)C(=O)O)Cc4ccc(Br)cc4)nn3)cc12	PREP (Homo sapiens (Human), UniProt P48147)	0.58 µM
N#C[C@@H]1CCCN1C(=O)CNC(=O)c1ccnc2ccc(OCCCNC(=O)CCc3cn(CCOCCOCCOCCC(=O)N[C@@H](CCCCNC(=O)CN4CCN(CC(=O)O)CCN(CC(=O)O)CCN(CC(=O)O)CC4)C(=O)NCCCCC(=O)N(CCCC[C@H](NC(=O)N[C@@H](CCC(=O)O)C(=O)O)C(=O)O)Cc4ccc(Br)cc4)nn3)cc12	PREP (Homo sapiens (Human), UniProt P48147)	0.35 µM
N#C[C@@H]1CCCN1C(=O)CNC(=O)c1ccnc2ccc(OCCCNC(=O)CCc3cn(CCCC[C@H](NC(=O)CN4CCN(CC(=O)O)CCN(CC(=O)O)CC4)C(=O)NCCCCCC(=O)N(CCCC[C@H](NC(=O)N[C@@H](CCC(=O)O)C(=O)O)C(=O)O)Cc4ccc(Br)cc4)nn3)cc12	PREP (Homo sapiens (Human), UniProt P48147)	1.07 µM
N#CC1CCCN1C(=O)CNC(=O)c1ccnc2ccc(OCCCNC(=O)CCc3cn(CC[C@H](NC(=O)CN4CCN(CC(=O)O)CCN(CC(=O)O)CC4)C(=O)NCCCCCC(=O)NCCCC[C@H](NC(=O)N[C@@H](CC(=O)O)C(=O)O)C(=O)O)nn3)cc12 (stereo partly shown)	PREP (Homo sapiens (Human), UniProt P48147)	11.2 µM
